Recorded values, source paper PMC5540273.

- Test system: STK16;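 also: KINOMEscan kinase panel screen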
- test-settings: concentration: 1 μM, replicates: in singlicate; n = 1
Classify: 1 (yes) when %Inh is strictly less than 10%; 0 (no) when %Inh is not.

Examples with answers:
COc1ccc(Nc2nccc(-c3ccc(NC(=O)c4cc5cc(F)ccc5[nH]4)cc3)n2)cc1: 1 (yes)
CS(=O)(=O)Cc1ccc(Nc2nccc(-c3c(-c4cccc(NC(=O)C5CCCCC5)c4)nn4ncccc34)n2)cc1: 0 (no)
COc1nccc(-c2c(-c3ccc(F)cc3)ncn2CCCN2CCOCC2)n1: 1 (yes)
CCCCc1nn2ncccc2c1-c1ccnc(NC2CC2)n1: 0 (no)
CC(=O)c1cccc(NC(=O)NC2CCN(c3ccnc(Nc4ccc(F)cc4)n3)C2)c1 (centres unmarked): 1 (yes)
CC[C@@H]1CO[C@H](C(=O)Nc2ccccc2)CN1c1cc(-c2ccc3c(N)n[nH]c3c2)nc(NC)n1: 0 (no)

Kindly review the next compound as well.
Is %Inh strictly under 10% for the entry COc1cc2ncnc(Nc3cccc(Br)c3)c2cc1OC.Cl ?
1 (yes)
